Tested on: U87MG cells
method_notes: MTT cell viability assay, cytotoxic activity against proliferation of U87MG cells
Type: cell-based, human
cond: Homo sapiens, U-87 MG, MTT assay, 48 h exposure, 0.78-50 μg/mL, mean ± SEM of four experiments
measurement_type: log10 IC50 (log10 of the value in µg/mL)
A difference of one corresponds to tenfold IC50; all values are log10 with IC50 in µg/mL.

Here is how some molecules turned out for log10 IC50.
>  <compound_structure>
CCCCCOC(=O)/C=C/c1cc(OC)c(OC)c(OC)c1

>  <log10 IC50>
1.50

$$$$
>  <compound_structure>
CCOC(=O)/C=C/c1cc(OC)c(OC)c(OC)c1

>  <log10 IC50>
2.00

$$$$
>  <compound_structure>
CCCCOC(=O)/C=C/c1cc(OC)c(OC)c(OC)c1

>  <log10 IC50>
1.76

$$$$
>  <compound_structure>
COc1cc(/C=C/C(=O)OC(C)C)cc(OC)c1OC

>  <log10 IC50>
1.91

$$$$
>  <compound_structure>
COc1cc(/C=C/C(=O)OC(c2ccccc2)c2ccccc2)cc(OC)c1OC

>  <log10 IC50>
0.41

$$$$
>  <compound_structure>
COc1cc(/C=C/C(=O)NCc2ccc(C)cc2)cc(OC)c1OC

>  <log10 IC50>
1.36

$$$$
>  <compound_structure>
CCN(CC)C(=O)/C=C/c1cc(OC)c(OC)c(OC)c1

>  <log10 IC50>
1.56

$$$$
>  <compound_structure>
CCCCCCCCCCOC(=O)/C=C/c1cc(OC)c(OC)c(OC)c1

>  <log10 IC50>
1.54

$$$$
>  <compound_structure>
COc1cc(/C=C/C(=O)OCCc2ccc(C)cc2)cc(OC)c1OC

>  <log10 IC50>
1.48

$$$$
>  <compound_structure>
COCCOC(=O)/C=C/c1cc(OC)c(OC)c(OC)c1

>  <log10 IC50>
1.70

$$$$

Consider the molecule "COc1cc(/C=C/C(=O)OCCc2ccccc2)cc(OC)c1OC" and give its measured log10 IC50.
1.39
